- test: Acid dissociation constant of compound was determined (for pyrrolinium group)
- Assay type: ADME
endpoint: pKa
Give bare numbers.

Recorded pKa of O=C(O)C1=NCCC1 , please. 6.2

* * *

- test: Acid dissociation constant of compound was determined (for carboxylic acid group)
- Type: ADME
endpoint: pKa
Numbers only.

Need pKa, item O=C(O)C1=NCCC1 1.8
